test system: guinea pigs with compression injury to the mid-thoracic spinal cord; assay type: in vivo; details: oral insertion in sedated guinea pigs
assayReadout: tolerability of gavage

CCOC(=O)Nc1ccncc1 [ethyl carbamate (2), N-(4-Pyridyl)Ethyl Carbamate] : uneventful
Nc1ccncc1 [4-AP, 4-aminopyridine, reference compound] : uneventful
COC(=O)Nc1ccncc1 [methyl carbamate (3), N-(4-Pyridyl)Methyl Carbamate] : uneventful
